Data origin: patent US20130156845A1

Record form. Attribute: % Kd. Fill in for each entry.
Test system: PTEN
Assay: In vivo evaluation of ssRNA formulated in lipid particle LNP06, liver PTEN mRNA (Example 77)
Parameters: species or system mouse
Details: ssRNA formulated in LNP06, 4.5 mg/kg tail vein, C57BL/6 mice, liver PTEN mRNA normalized to GAPDH, 2 days post injection
Procedure: In accordance with the present disclosure, oligomeric compounds were synthesized and tested for their ability to reduce PTEN. […] Liver lysates were prepared from the frozen tissues and liver mRNA levels of PTEN normalized to GAPDH were quantified using a branched DNA assay (QuantiGene Assay, Panomics, Calif.).
Strand notation (5' to 3'): a small letter for the sugar, then the base; units joined by * are phosphorothioate-linked, units joined directly phosphodiester-linked; [ ] holds rarer units or linkages, { } end groups; capitals alone tell only the bases. {PS} = PS group (structure drawn in the publication); e = 2'-O-(2-methoxyethyl) (MOE); m = 2'-O-methyl; {P} = phosphate; f = 2'-fluoro

Below are worked cases with known answers.
SUBSTANCE: Py-^meUmUfGmUfCmUfCmUfGmGfUmCfCmUfUmAfCmUfUmAeAe (antisense UUGUCUCUGGUCCUUACUUAA; 5'-methylenephosphonate, 2'-F/2'-OMe, MOE, chemistry not fully specified) [ISIS 467076, modified ssRNA targeting PTEN, 5′-methylenephosphonate]
% Kd: 34%
--
SUBSTANCE: P-TmoeUfGmUfCmUfCmUfGmGfUmCfCmUfUmAfCmUfUmAeAe (antisense {P}-eT*fU*mGfU*mCfU*mCfU*mGfG*mUfC*mCfU*mU*fA*mC*fU*mU*eA*eA) [A-53286, modified ssRNA targeting PTEN]
% Kd: 67%

Moving on to the next substance.
Reported PTEN % Kd for item PS-TmoeUfGmUfCmUfCmUfGmGfUmCfCmUfUmAfCmUfUmAeAe (antisense {PS}-eT*fU*mGfU*mCfU*mCfU*mGfG*mUfC*mCfU*mU*fA*mC*fU*mU*eA*eA) [A-59889, modified ssRNA targeting PTEN] was 45%

###

assay: Modified ssRNA 5′-phosphate serum stability assay (Example 60); type: in vitro ADME; conditions: full length ssRNA with 5′-terminal phosphate; 10 μM in 95% fresh mouse serum, 37° C., LC/MS
Strand notation (5' to 3'): a small letter for the sugar, then the base; units joined by * are phosphorothioate-linked, units joined directly phosphodiester-linked; [ ] holds rarer units or linkages, { } end groups; capitals alone tell only the bases. [DMAEAc-N] = nucleoside with 2'-O-dimethylaminoethyl acetamide (DMAEAc) sugar (N: the base); [R5Me] = (R)-5'-methyl-2'-deoxythymidine; e = 2'-O-(2-methoxyethyl) (MOE); {P} = phosphate; f = 2'-fluoro
Record form. Attribute: T1/2. Fill in for each entry.
Don't forget the unit after the number, please.

Below are worked cases with known answers.
SUBSTANCE: P-USfUfGfUfCfUfCfUfGfGfUfCfCfUfUfAfCfUfUf (antisense UUGUCUCUGGUCCUUACUU; 5'-phosphate, 2'-F, phosphorothioate, chemistry not fully specified) [ISIS 398701, modified ssRNA targeting PTEN]
T1/2: 18.2 h
//
SUBSTANCE: P-TRUfGfUfCfUfCfUfGfGfUfCfCfUfUfAfCfUfUfAeAe (antisense TUGUCUCUGGUCCUUACUUAA; sugars from the 5' end [R5Me]1 f18 e2, 5' {P}, backbone not given here) [ISIS 432356, modified ssRNA targeting PTEN]
T1/2: 8.7 h
//
SUBSTANCE: P-UfUfGfUfCfUfCfUfGfGfUfCfCfUfUfAfCfUfUfAeAe (antisense UUGUCUCUGGUCCUUACUUAA; sugars from the 5' end f19 e2, 5' {P}, backbone not given here) [ISIS 404320, modified ssRNA targeting PTEN]
T1/2: 4 h

Recorded T1/2 (substance P-TdUfGfUfCfUfCfUfGfGfUfCfCfUfUfAfCfUfUfAeAe (antisense {P}-[DMAEAc-T]fUfGfUfCfUfCfUfGfGfUfCfCfU*fU*fA*fC*fU*fU*eA*eA) [ISIS 422391, modified ssRNA targeting PTEN] ): 6.5 h
